Before we begin, note that these IC50 values for Cytochrome P450 2C9 (Homo sapiens, UniProt P11712) originate from several publications.
ENDPOINT: IC50 (µM)

COMPOUND	NUMERIC RESULT
COc1cc(N2Cc3cn(-c4cccc(S(C)(=O)=O)c4)nc3[C@H]2C(C)(C)C)ccn1	8.3
Cc1ncn(-c2cc(Cl)c(C(=O)NC[C@@H](c3cccc(F)c3)c3nc4c(C)cc(Cl)cc4[nH]3)c(Cl)c2)n1	22.4
Cc1c(Sc2ccc(Cl)cc2)c2c(NS(C)(=O)=O)cccc2n1CC(=O)O	10
C=CC(=O)N1CCCC[C@@H](n2c(NC(=O)c3cccc(C(F)(F)F)c3)nc3cccc(C)c32)C1	3.4
CN1C[C@@H](C(=O)Nc2ccc(Cl)cc2)[C@H](c2ccc(/C=C/C(=O)Nc3ccccc3N)cc2)C1	23

P. C[C@H]1C(=O)N(c2ccc(S(=O)(=O)C(F)(F)F)cc2)C(=O)N1Cc1ccnc2ccccc12
Q. Cc1nn(-c2cncc([C@@](C)(O)C(F)(F)F)c2)c2ccccc12
R. CC(C(=O)N1CCCC1)c1ccc(-n2nc(C(F)(F)F)c3c2CCCC3)cc1 (stereo not given)
Task: Ordering: ascending IC50. Note for the reader: the ranking is given by listing the labels in the order requested.
Result: P, R, Q

I. O=C(Nc1ccc(F)cc1)C1(c2ccc(-c3cnc(C(F)(F)F)cc3CO)cc2)CCC1
II. COc1cc2c(cc1-c1c(C)noc1C)ncc1nc(N(C)C)n(CC3CCOCC3)c12
Task: Sort I and II by IC50 descending and give the first. # respond with the chosen item's label
Result: II

a. CC(=O)N[C@@H](C)/C=C/c1cnc(Oc2ccc(OCC3CC3)cc2Cl)n1C
b. C=CC(=O)Nc1cccc(C)c1Nc1ncc(OCc2c(F)c(OC)cc(OC)c2F)cn1
Task: Exercise: compare a and b ; which one has the greater IC50? Mark your selection by writing its label.
Result: a

I. CC(C)c1nc(CN(C)C(=O)N[C@H](C(=O)N[C@H](CC[C@H](Cc2ccccc2)NC(=O)OCc2cncs2)Cc2ccccc2)C(C)C)cs1
II. COc1cc2c(cc1OC)[C@@H]1C[C@H](N)[C@@H](c3cccc(C)c3)CN1CC2
Task: Select one: I or II . Criterion: greater recorded IC50. Kindly give the label for the entry you pick.
Result: II
(II: 15 µM, I: 6.8 µM)
